Cited source: PubChem BioAssay (NCI)

tested on: SK-MEL-5 melanoma; assay: NCI tumour cell line growth inhibition, 48 h; in the data active = GI50 below about 0.43 µM; inactive = the rest
Labels: active, inactive

[
  {
    "COMPOUND": "CCOC(=O)c1ccc(N2NC(=O)/C(=C/c3ccc([N+](=O)[O-])o3)C2=O)cc1",
    "STUDY SYSTEM": "SK-MEL-5 melanoma",
    "GROUP": "inactive"
  },
  {
    "COMPOUND": "COC(=O)[C@H](Cc1cn(C)cn1)NC(=O)[C@H](CC(C)C)NC(=O)Nc1cc(C(F)(F)F)cc(C(F)(F)F)c1",
    "STUDY SYSTEM": "SK-MEL-5 melanoma",
    "GROUP": "inactive"
  },
  {
    "COMPOUND": "Clc1cc(Br)ccc1-c1ccc(CNCC2CCNCC2)o1",
    "STUDY SYSTEM": "SK-MEL-5 melanoma",
    "GROUP": "inactive"
  },
  {
    "COMPOUND": "COc1cc(-n2cc(-c3ccc(Cl)cc3)n(-c3ccccc3)c2=O)cc(OC)c1OC",
    "STUDY SYSTEM": "SK-MEL-5 melanoma",
    "GROUP": "inactive"
  },
  {
    "COMPOUND": "Oc1ccc(N=Nc2ccc(Br)cc2)c(O)c1",
    "STUDY SYSTEM": "SK-MEL-5 melanoma",
    "GROUP": "inactive"
  },
  {
    "COMPOUND": "COc1ccc(C)c2sc(N(Cc3cccnc3)C(=O)c3ccc(C#N)cc3)nc12",
    "STUDY SYSTEM": "SK-MEL-5 melanoma",
    "GROUP": "inactive"
  },
  {
    "COMPOUND": "OCC1OC(N2C=C(c3nc4ccccc4s3)C3C=CC=CC32)C(O)C(O)C1O (centres undefined)",
    "STUDY SYSTEM": "SK-MEL-5 melanoma",
    "GROUP": "inactive"
  },
  {
    "COMPOUND": "CC(=O)O[C@@H]1c2c(c3c(=O)c4cccc(O)c4c(=O)c=3c2=[N+]=[N-])[C@H](OC(C)=O)[C@@H](OC(C)=O)[C@]1(C)O",
    "STUDY SYSTEM": "SK-MEL-5 melanoma",
    "GROUP": "active"
  },
  {
    "COMPOUND": "O=C1OC2(c3ccc(O)cc3Oc3cc(O)ccc32)c2cccc3cccc1c23",
    "STUDY SYSTEM": "SK-MEL-5 melanoma",
    "GROUP": "inactive"
  }
]
